The reported numbers originate from the DeepSol protein solubility set.

PROTOCOL: soluble on expression in E. coli; label from the status in PepcDB or PDB records
PARAMETER_MEASURED: soluble on expression in E. coli

MPSNDIQGLELPQSYFNAAAKRQKYAMKPGLSALEKNAVIKAAYRQIFERDITKAYSQSISYLESQVRNGDISMKEFVRRLAKSPLYRKQFFEPFINSRALELAFRHILGRGPSSREEVQKYFSIVSSGGLPALVDALVDSQEYADYFGEETVPYLRGLGVEALEHHHHHH :: soluble
MSLAHRTVAMVLFNDVLLLDVTGPMDAFAIANRFLPAARQYRLLTLAEGQAVVRGSCGLKVVADRRLEDLPEAVDLLLVPGGPGAYDIALPGIERWLPKAVRQAKRFGAICTGVFLLGRAGLLNGYRCTTHWNYVERLAQAFPEAKVETEQIYVMDRCLITSGGITAGIDLALAVVAEDHGKALALEVAKVLLVARHRQGGQTPYGPLLAAVPRDDSPIARVQAYIVDHIEQAFTVQKMAELVAMSGRNFARTFLREVGITPLQYLQNARIDRTRKLLECGDLPMKVVAAQCGFGSDRHMRKVFFERIGMTPAQYRAQFGGEGHHHHHH :: soluble

====

PROTOCOL: soluble on expression in E. coli; label from the status in PepcDB or PDB records
PARAMETER_MEASURED: soluble on expression in E. coli

Some sequences with recorded soluble on expression in E. coli:
FSKTQRWAEPGEPICVVCGRYGEYICDKTDEDVCSLECKAKHLLQVKEKEEKS :: soluble
MGSDKIHHHHHHMETITKKANLSLLELPSGGEESLFCRLYSPALAGPAPLIVLFHGFPGKQLNMDWAVQLQNLSFHVLVTSYRGTIGSPGAFRFRHVLEDATAIMQHVVSPEFTQAHDISADQISIVGHSMGGFAGLHAFIDVPDIAHYIGISPFNFGLIGQLVLDYPEHEEALQGVLSRGAQFLSHTDGDILLDELKRHHATWNLLSLKEQLGTRSALLVTSERDETSIKSLHHDLLQDASAFEQIIVDSDHNYIENREDAFRAWTTWLRRR :: not soluble
MGSDKIHHHHHHMKILKHSLFTSVVNKMRLIHHQDDTAKLSLLITGMSGTGKSTLVDWYEQQYPVEYTPEVTLKRVICVHLTKPNSPINLLEQIINAMGTSYIPRRRTLNKLLHQLKCLLEACQTELIILDEAQECLPDSDGIKAQSMAKAFVAIIDKCNVPLILIGTPALKRLLKLKYLADVKNISREEQLSRRFIAPCQLNIFLSHCDAWVNVINFFGKTKGLRNLNTKDADILDRLYVATYGRIGLIKKLFAFTQLNETSDLQATFYDAYELVDTTGEANPFNQQDYTYAAIIKKAENIERIYFTHNKTHPSEKRVADRLFH :: not soluble
MYSKIEGSIITARFDKETDFFTDLVDLCNKYEVKSGTVLWAIGMLKEFQIGYWNGNDYEKETFRERLELVSLHGSIAENDPRFHIHAAGARGNHGIVGGHLFSAKVDPLVEIQIMKITGFSMSRELDNSDGLYKLVIKLEHHHHHH :: not soluble
MGSDKIHHHHHHMIEVSRFWRDPALPFVEARQVGDGRKVCYAAHSHESFSIGVITGGRSTYINSDQCVEVGAGTTVLMNPGVVHTCNPVAGEPWSYLMLFVDQPWLQAVGFTLPTQTWSRSPVLYRRLLQAFADLFDARLPDREARLAALFHELPGMLGGNASEGGEGNPRLDAAAAFIRAHRSDPLSLEDICGACGLSRSYLIRAFRQRFGLTPHGYLLDQRVQLARAQLRQGRSIAEVAQEAGFADQAHLQRAFKQHLAATPGHYRNAVASLGAPAGAVQALKDQVNRAGDQ :: not soluble
GFKVIMVTDVGGLGDKSFNDGTWAGIKQAAEELGIEAKVIQSYEQSDYIPNLSKAAEEADLVFAVGFMMTNDLFKVAKQYPDTYFVGIDITPPEGQILPNVLTFTFKEQEAAFLVGYVAAAMTKTGMVGFVGGIPIPPVERFRYGYEAGIKTYSVLHKKNVKILRGYTQDFEDPKKGKDLAMSQFAEGADIVFHASGACGNGVIEAAREKFSALAGSDKLVDLIDYYTTNGKGFFAIGVDMDQDYMAPGAVLTSAMKRVD :: soluble

For each of the sequences below, state soluble on expression in E. coli.
1. MGSDKIHHHHHHMATRSATQPVSPQVARLARGLKLGANSMLVTLFGDVVAPRPQALWLGSLIRLAEPFGINDRLVRTATFRLTSDDWLNATRIGRRSYYGLSEAGLQRCLHAGKRIYAGDAPDWDGRWTLALVRGDARATIRQRLKRELLWEGFGAIAPGVYAHPNADANSLGEIIRAAHAQDFVAVMDATSLETFSIRPLQTLMHQTFKLGDVASAWQALLRRFSPVLADAHAMTPADAFFVRTLLLHEYRRVLLRDPNLPEQLLPTDWPGRTARDLCRDMYAALLDASEDYLREVVEVSEGTLANATRLLRRRFAMA
2. MGSDKIHHHHHHMALEPQIKSAPTPVILIVEPYGGSIRQQNPNLPMVFWDDAALTRGDGIFETLLIRDGHACNVRRHGERFKASAALLGLPEPILEDWEKATQMGIESWYSHPNAGEASCTWTLSRGRSSTGLASGWLTITPVSSDKLAQREHGVSVMTSSRGYSIDTGLPGIGKATRGELSKVERTPAPWLTVGAKTLAYAANMAALRYAKSNGFDDVIFTDGDRVLEGATSTVVSFKGDKIRTPSPGGDILPGTTQAALFAHATEKGWRCKEKDLSIDDLFGADSVWLVSSVRGPVRVTRLDGHKLRKPDNEKEIKALITKALG
3. LYRHFAHRPDDLYRLEWREYETLLARIFQSQGFDVELGPGRGDEGVDIRLIQRDPIGDIVTLVQAKKYGAGNKIDQTQVAALYGIQQSEDANFSMFVTTSAYAPVAKRFSAREKV
4. MGSDKIHHHHHHMEIVLAKRAGFCFGVKRATQMAFEAAEKEGETFTLGPIIHSPQVVQRLEGMGVKVLSDLEGIGNGTVIIRSHGVTSAELEDAVRRQLEVVDATCPFVKKAQEHVKRLSHDGYTVVVVGDADHPEVQGIVSYAEGPVHVVGSGEEAARLPNMKKVGVVAQTTQSFETLKNVVKECLLKGGEIRVFNTICDATAVRQDEAKALAREVDCMIVIGGFNSANTKRLAEVCSELQPRTYHIETAQELDASWFQGVERVGVTAGASTPKWLIDEVIERIQEFDNKKKG
5. GASLAPLRRMREVAARVSANSLTTRLDASRMPEELRGLAGELNAMLARLEEAFQRLSAFSADIAHELRTPLTSLLTQTQVVLSRPRSLEDYREALHGNLEELERLTAMVNDMLLLAKADHGLLAPSRQALDLGAEVDSLLEFYQPLAEDRDIRLLREGSLSLPGDRGMLRRVLANLLDNALRFTADGGEIRIRLGDRRLSVENQGPAIPPERLPRLFDRFYRADPARREGQGEHAGLGLAICRSIVQAHGGEIRCESADGWTRFVIDFAR
6. MAEKALATLKELAFLEDPSPVERDAAIQRFEYTFEAFWKALQAYLREKEGLEGASPKGVIRLAREVGLLRDEEARLALGMVDDRSLTVHTYNEPLARAIFRRLPDYARLMEQVLGRLRR

1. not soluble
2. not soluble
3. not soluble
4. not soluble
5. not soluble
6. soluble

Fill in: soluble on expression in E. coli of SAGVRGLRLVERYTQDTANIINNVIKLDKQKVEAFSIQYKDPKNFRVQVKINAKGNYKKDTVKTYLSQVGLSDGDLNDTGTLEAEIIYTYMPPAASFFSASKFDKLTRAINFNTNLRIQIIGKDSVMTKLLQQSSFVKQLADQKFQDQSINLLPYVLYSI is ___
not soluble
